- system: CCR2 (Homo sapiens, UniProt P41597)
- Construct: Membranes were prepared from THP-1 cells; endogenous in cells; host or cells: THP-1 cells (membrane preparation)
- Sequence (P41597 1-360 isoform P41597-2): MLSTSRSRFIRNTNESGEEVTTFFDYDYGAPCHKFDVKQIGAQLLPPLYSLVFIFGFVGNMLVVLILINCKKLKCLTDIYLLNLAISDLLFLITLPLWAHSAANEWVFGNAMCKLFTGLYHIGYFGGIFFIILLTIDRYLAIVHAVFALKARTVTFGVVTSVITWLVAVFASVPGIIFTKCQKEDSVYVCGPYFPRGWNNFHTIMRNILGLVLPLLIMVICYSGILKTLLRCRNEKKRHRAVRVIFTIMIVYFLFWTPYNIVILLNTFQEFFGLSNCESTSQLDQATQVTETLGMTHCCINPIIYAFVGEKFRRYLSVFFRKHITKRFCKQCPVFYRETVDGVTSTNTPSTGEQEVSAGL
- assay.info: CCR2 receptor membrane binding assay ([125I]MCP-1, THP-1 cell membranes, SPA beads)
- experimental.context: @ 10 μM test compound; THP-1 membranes; read-out: CCR2 % ctrl @ 10 μM
Below, each entry is listed alongside its reported remaining activity at 10 µM.
quantity.name: remaining activity at 10 µM (%)

- compound: "Cc1c(NCc2ccc(C(C)(C)C)cc2)ncnc1C(=O)N1CCC(N2CCC(c3ccccc3)CC2)CC1"
  endpoint.unit: "%"
  experimental.result: 0
- compound: "Cc1c(NCc2ccc(Cl)c(Cl)c2)ncnc1C(=O)N1CCC(N2CCCC(O)CC2)CC1 (stereo not shown)"
  endpoint.unit: "%"
  experimental.result: 15
- compound: "Cc1c(NCc2ccc(C(F)(F)F)cc2F)ncnc1C(=O)N1CCC(N2CCC(O)CC2)CC1"
  endpoint.unit: "%"
  experimental.result: 51
- compound: "COC1CCN(C2CCN(C(=O)c3ncnc(NCc4ccc(C)c(Cl)c4)c3C)CC2)CC1"
  endpoint.unit: "%"
  experimental.result: 2
- compound: "Cc1c(NCCc2ccc(Cl)c(Cl)c2)ncnc1C(=O)N1CCC(N2CCC[C@H](NS(C)(=O)=O)C2)CC1"
  endpoint.unit: "%"
  experimental.result: 54
- compound: "Cc1c(NCc2ccc(Cl)c(Cl)c2)ncnc1C(=O)N1CCC(N2CC[C@H](N(C)S(C)(=O)=O)C2)CC1"
  endpoint.unit: "%"
  experimental.result: 36
- compound: "Cc1c(Cc2ccc(C(C)(C)C)cc2)ncnc1C(=O)N1CCC(N2CCC(N(C)S(C)(=O)=O)CC2)CC1"
  endpoint.unit: "%"
  experimental.result: 5
- compound: "Cc1c(NCc2ccc(Cl)c(Cl)c2)ncnc1C(=O)N1CCC(N(C)CC#N)CC1"
  endpoint.unit: "%"
  experimental.result: 53
- compound: "Cc1c(NCc2ccc(C(C)(C)C)cc2)ncnc1C(=O)N1CCCN(C2CCCC2)CC1"
  endpoint.unit: "%"
  experimental.result: 19
- compound: "Cc1c(NCc2ccc(F)c(F)c2)ncnc1C(=O)N1CCC(N2CCOCC2)CC1"
  endpoint.unit: "%"
  experimental.result: 26
- compound: "O=C(c1cc(NCc2ccc(-c3ccccc3)cc2)ncn1)N1CCC(N2CCCC(O)C2)CC1 (stereo not shown)"
  endpoint.unit: "%"
  experimental.result: 30
- compound: "Cc1c(NCc2cccc(OC(F)(F)F)c2)ncnc1C(=O)N1CCC(N2CCC(O)CC2)CC1"
  endpoint.unit: "%"
  experimental.result: 36
- compound: "Cc1nc(NC[C@@H]2CCN(c3ccccc3)C2)c(C)c(C(=O)N2CCC(N3CCC(N(C)S(C)(=O)=O)CC3)CC2)n1"
  endpoint.unit: "%"
  experimental.result: 13
- compound: "Cc1c(NC2COc3ccccc3C2)ncnc1C(=O)N1CCC(N2CCC(O)CC2)CC1 (stereo not shown)"
  endpoint.unit: "%"
  experimental.result: 58
- compound: "Cc1c(C(=O)N2CCC(N3CCC(O)CC3)CC2)ccnc1NCc1ccc(Cl)c(Cl)c1"
  endpoint.unit: "%"
  experimental.result: 19
- compound: "COC1CN(C(=O)c2ncnc(NCc3ccc(C(C)(C)C)cc3)c2C)CCC1N1CCC(N(C)S(C)(=O)=O)CC1 (stereo not shown)"
  endpoint.unit: "%"
  experimental.result: 27
